# System: C. albicans S1 (FLU-sensitive)
# Protocol Text: Turbidity assay (MIC and IC50) in C. albicans S1
# Type: cell-based
# Condition Parameters: Candida albicans, 48 h, Abs600nm at 48 h; read-out: Turbidity Assay IC50 C. albicans S1
Test Readout: IC50

The compound identified as O=c1c2ccccc2[se]n1-c1ccccc1 [EB, Ebselen, reference compound] registered its IC50 at ~17 µM

Query OC(Cn1cncn1)(Cn1cncn1)c1ccc(F)cc1F [FLU, fluconazole, reference compound] yields IC50 of ~6 µM

====

# Target Or System: yeast plasma membrane H+-ATPase (Pma1p) (Candida albicans, UniProt P28877)
# Sequence (P28877 whole entry): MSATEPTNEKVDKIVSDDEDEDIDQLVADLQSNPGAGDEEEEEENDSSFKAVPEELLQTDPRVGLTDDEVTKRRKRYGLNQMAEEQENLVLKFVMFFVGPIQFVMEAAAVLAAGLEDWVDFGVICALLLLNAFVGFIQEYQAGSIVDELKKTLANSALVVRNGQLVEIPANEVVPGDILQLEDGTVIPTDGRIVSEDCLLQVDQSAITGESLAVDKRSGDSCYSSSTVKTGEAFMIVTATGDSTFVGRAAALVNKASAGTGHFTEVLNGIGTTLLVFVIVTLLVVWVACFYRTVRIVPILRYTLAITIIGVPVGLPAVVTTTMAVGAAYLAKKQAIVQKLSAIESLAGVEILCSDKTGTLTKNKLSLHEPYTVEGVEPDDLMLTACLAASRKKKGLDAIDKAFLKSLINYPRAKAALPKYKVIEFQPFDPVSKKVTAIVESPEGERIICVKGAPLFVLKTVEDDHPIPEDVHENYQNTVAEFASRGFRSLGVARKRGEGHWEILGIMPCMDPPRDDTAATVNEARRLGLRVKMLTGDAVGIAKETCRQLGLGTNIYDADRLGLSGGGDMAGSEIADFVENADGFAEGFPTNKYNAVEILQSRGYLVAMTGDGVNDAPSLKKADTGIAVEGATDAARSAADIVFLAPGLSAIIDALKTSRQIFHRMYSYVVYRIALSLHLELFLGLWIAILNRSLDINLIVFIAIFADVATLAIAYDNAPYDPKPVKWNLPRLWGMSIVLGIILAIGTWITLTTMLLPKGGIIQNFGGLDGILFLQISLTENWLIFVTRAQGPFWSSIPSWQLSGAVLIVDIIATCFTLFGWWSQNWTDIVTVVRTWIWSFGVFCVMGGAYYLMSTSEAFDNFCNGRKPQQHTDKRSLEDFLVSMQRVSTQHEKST
# Protocol Text: Medium acidification assay in C. albicans S1
# Assay type: cell-based
# Condition Parameters: IC50MA (medium acidification), change in pH at 30 min, highest test concentration 30 µM, mean ± SEM of three experiments
pIC50: −log10 of the molar value.
Give measured pIC50 for each item. Keep answers brief.

The value of pIC50 measured for the compound `C[C@@H]1[C@@H](n2[se]c3ccccc3c2=O)C[C@H]2C[C@@H]1C2(C)C` turned out to be < 4.52

pIC50 measured on `C[C@@H]1C[C@H]2[C@@H](C[C@H]1n1[se]c3ccccc3c1=O)C2(C)C` = < 4.52

// recorded pIC50 for `C[C@H]1[C@H](n2[se]c3ccccc3c2=O)C[C@@H]2C[C@H]1C2(C)C` : < 4.52

====

# Target Or System: yeast plasma membrane H+-ATPase (Pma1p) (Candida albicans, UniProt P28877)
# Protocol Text: Medium acidification assay in C. albicans S1
# Format: cell-based
# Condition Parameters: change in pH at 30 min, highest test concentration 30 µM, mean ± SEM of three experiments, read-out: IC50MA (medium acidification)
Test Readout: IC50

Looking up CC1(C)C2CCC(Cn3[se]c4ccccc4c3=O)C1C2 (single isomer, unassigned; (-)) [CHB3] , I found its IC50 recorded as > 30 µM

The compound identified as C[C@H]1CC[C@@H]2[C@H]([C@@H]1n1[se]c3ccccc3c1=O)C2(C)C [CHB4] registered its IC50 at 13.8 µM

Just so you know, measured IC50 for OC(Cn1cncn1)(Cn1cncn1)c1ccc(F)cc1F [FLU, fluconazole, reference compound] came out at > 30 µM

The compound CC(C)[C@@H]1CC[C@@H](C)C[C@H]1n1[se]c2ccccc2c1=O [CHB6] showed IC50 equal to > 30 µM
